Test name: Thermo Scientific Acclaim RSLC 120 C18, 100 × 2.1 mm, 2.2 µm, 30 °C; A: 90% water + 10% methanol + 0.01% formic acid + 5 mM ammonium formate; B: methanol + 0.01% formic acid + 5 mM ammonium formate; gradient (min/%B) 0.1/1 3/39 14/99.9 16/99.9
Conditions: stereoisomer not certain
Each record's class is read off its LC retention time using these ranges: low bin (below 5 min), mid bin (5 min to below 8 min), high bin (8 min or more)

**Query** # bin label for CCOC(=O)c1ccc(N)cc1
**Result** mid bin

**Query** # bin label for CN(C)C(CCOc1cccc2ccccc12)c1ccccc1 (centres undefined)
**Result** high bin

**Query** # bin label for CCc1cc(OC)c(CC(C)N)cc1OC (centres undefined)
**Result** mid bin

**Query** # bin label for NC(N)=NS(=O)(=O)c1ccc(N)cc1
**Result** low bin

**Query** # bin label for C=C1CC(=CC)C(=O)OC2CC[N+]3([O-])CC=C(COC(=O)C1(C)O)C23 (centres undefined)
**Result** low bin

**Query** # bin label for c1cncc(C2CCCCN2)c1 (centres undefined)
**Result** low bin

**Query** # bin label for CC1=C(C)S(=O)(=O)CCS1(=O)=O
**Result** low bin

**Query** # bin label for NC1CCc2cc3c(cc2C1)OCO3 (centres undefined)
**Result** low bin

**Query** # bin label for COP(=O)(OC)Oc1ccc(SC)c(C)c1
**Result** high bin

**Query** # bin label for CC(NC(=O)C(N)CC(=O)O)C(=O)NC1C(C)(C)SC1(C)C (centres undefined)
**Result** mid bin

**Query** # bin label for CCCSP(=O)(OCC)SCCC
**Result** high bin

**Query** # bin label for COc1nn(CSP(=S)(OC)OC)c(=O)s1
**Result** high bin

**Query** # bin label for CCN(CC)CC#CCOC(=O)C(O)(c1ccccc1)C1CCCCC1 (centres undefined)
**Result** high bin

**Query** # bin label for CCN1CCCC1CNC(=O)c1cc(S(N)(=O)=O)ccc1O (centres undefined)
**Result** low bin

**Query** # bin label for CC(COc1ccc(Oc2ccccc2)cc1)Oc1ccccn1 (centres undefined)
**Result** high bin

**Query** # bin label for COc1ccc2c3c1OC1C(O)CCC4C(C2)N(C)CCC341 (centres undefined)
**Result** low bin

**Query** # bin label for COC(=O)C(Cc1ccccc1)NC(=O)C(CC(=O)O)NCCC(C)(C)C (centres undefined)
**Result** high bin

**Query** # bin label for CCNC(C)C(=O)c1ccc(C)cc1 (centres undefined)
**Result** low bin

**Query** # bin label for CNCCC=C1c2ccccc2COc2ccccc21
**Result** mid bin

**Query** # bin label for c1coc(-c2nc3ccccc3[nH]2)c1
**Result** mid bin

**Query** # bin label for Cc1c(N(C)C)c(=O)n(-c2ccccc2)n1C
**Result** mid bin

**Query** # bin label for Cc1ncc([N+](=O)[O-])n1C
**Result** low bin

**Query** # bin label for CCCCCn1cc(C(=O)c2cccc3ccccc23)c2cc(O)ccc21
**Result** high bin

**Query** # bin label for COc1ccc(C(CN(C)C)C2(O)CCCCC2)cc1 (centres undefined)
**Result** mid bin

**Query** # bin label for CCN(CC)CCCN(c1ccccc1)C1Cc2ccccc2C1
**Result** high bin

**Query** # bin label for COc1cccc2c(C(=O)NC3C4(C)CCC(C4)C3(C)C)cn(CCN3CCOCC3)c12 (centres undefined)
**Result** high bin

**Query** # bin label for CCCSc1ccc2nc(NC(=O)OC)[nH]c2c1
**Result** high bin

**Query** # bin label for c1ccc(C(c2ccccc2)C2CCCCN2)cc1 (centres undefined)
**Result** mid bin

**Query** # bin label for NC(=O)c1cc[n+](CC2=C(C(=O)[O-])N3C(=O)C(NC(=O)Cc4cccs4)C3SC2)cc1 (centres undefined)
**Result** low bin

**Query** # bin label for CC(C(=O)O)c1ccc(CC(C)(C)O)cc1 (centres undefined)
**Result** mid bin

**Query** # bin label for CC=CC(=O)N(CC)C(CC)C(=O)N(C)C (centres undefined)
**Result** mid bin

**Query** # bin label for CC(=O)CCCCn1c(=O)c2c(ncn2C)n(C)c1=O
**Result** mid bin

**Query** # bin label for CN1C(=O)C(O)CC1c1cccnc1 (centres undefined)
**Result** low bin

**Query** # bin label for CC#Cc1cc(C)nc(Nc2ccccc2)n1
**Result** high bin

**Query** # bin label for CCCc1nn(C)c2c(=O)[nH]c(-c3cc(S(=O)(=O)N4CCCCC4)ccc3OCC)nc12
**Result** high bin

**Query** # bin label for Cc1cc(C(C)(C)C)cc(C)c1CC1=NCCN1
**Result** mid bin

**Query** # bin label for NCC1CCCCC1(O)c1cccc(O)c1 (centres undefined)
**Result** low bin

**Query** # bin label for CCCCCCCCOC(=O)c1ccccc1C(=O)OCCCCCCCC
**Result** high bin

**Query** # bin label for CC1NCCOC1c1ccccc1 (centres undefined)
**Result** low bin

**Query** # bin label for CC(C)(C)c1ccc(CCOc2ncnc3ccccc23)cc1
**Result** high bin

**Query** # bin label for Cc1oc(C)c(C(=O)Nc2ccccc2)c1C
**Result** high bin

**Query** # bin label for CC(C(=O)c1ccccc1)N1CCCC1 (centres undefined)
**Result** low bin
